# Test system: UO-31 renal
# protocol notes: NCI-60 one-dose screen, 48 h (100 = growth as untreated, 0 = no growth, -100 = all killed)
# condition: 10 µM unless noted
Compounds without any hit were thinned out: in the full panel of roughly 83,000, 20% have a hit.
readout type: growth (%)

> print(dat)
                  compound.structure.string  readout.type  readout.units  reported.result
1  CCN(CC)c1ccc(/C=N/NC(=O)Cc2ccc(Nc3ccnc(C(F)(F)F)c3)cc2)c(O)c1        growth              %             20.3
2  Fc1ccc2[nH]cc(-c3nc(-c4c[nH]c5ccncc45)cs3)c2c1        growth              %            -69.9
3  CCCCNc1cc(-c2cn[nH]c2-c2cc(C)cc(OC)c2)nc(-c2cccnc2)n1        growth              %             62.3
4  O=C(NNC(=O)c1ccc(NC(=O)c2ccccn2)cc1)Nc1ccc2ccccc2c1        growth              %             82.5
5  O=C1Nc2ccccc2/C1=C/c1cccn1C(=O)c1ccc(Cl)s1        growth              %             65.1
